Biological target: Yer184c (UniProt P39961)
Sequence: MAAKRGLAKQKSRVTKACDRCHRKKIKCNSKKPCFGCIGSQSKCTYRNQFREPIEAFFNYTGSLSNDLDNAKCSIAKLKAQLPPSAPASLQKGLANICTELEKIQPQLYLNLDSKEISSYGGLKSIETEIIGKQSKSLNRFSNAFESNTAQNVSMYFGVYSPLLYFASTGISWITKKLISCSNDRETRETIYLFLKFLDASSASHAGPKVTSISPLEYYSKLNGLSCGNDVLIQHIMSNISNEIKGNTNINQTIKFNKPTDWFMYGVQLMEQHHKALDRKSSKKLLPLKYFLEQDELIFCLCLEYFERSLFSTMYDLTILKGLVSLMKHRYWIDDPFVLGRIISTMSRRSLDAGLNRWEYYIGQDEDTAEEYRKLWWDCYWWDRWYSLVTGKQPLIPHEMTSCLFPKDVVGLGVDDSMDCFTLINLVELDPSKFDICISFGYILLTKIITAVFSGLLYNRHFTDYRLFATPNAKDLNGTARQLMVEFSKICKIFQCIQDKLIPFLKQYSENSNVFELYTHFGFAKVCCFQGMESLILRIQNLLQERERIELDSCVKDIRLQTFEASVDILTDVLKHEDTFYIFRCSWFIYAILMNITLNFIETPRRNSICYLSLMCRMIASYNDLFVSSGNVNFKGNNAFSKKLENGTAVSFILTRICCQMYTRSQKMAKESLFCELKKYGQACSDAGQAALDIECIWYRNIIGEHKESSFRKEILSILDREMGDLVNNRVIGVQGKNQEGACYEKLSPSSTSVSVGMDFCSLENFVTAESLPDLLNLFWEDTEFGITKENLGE
Assay: PBM E-score (8-mer binding enrichment) (E-score (-0.5 to 0.5)); higher = stronger / more preferred TF binding
Details: protein concentration: 100 nM; construct: GST-full length
Whole data set: some 33,000 sequences, median “E-score (-0.5 to 0.5)” near -0.016, cut for the highest 2% near 0.3. This is one part of a sample in which the highest values are shown more often than they occur.
Label scheme for PBM E-score: lower than -0.02 is False, -0.02 and above is True.

These solved cases illustrate the format of a correct answer.
## Input Please tell me: is the sequence GGACCTGA at or over -0.02 in terms of PBM E-score?
## Output False

## Input And what about the sequence AAATCCGG ?
## Output True

Shifting focus to the sequence that follows.
## Input Hi, just wondering whether ACGTTGCT shows PBM E-score of -0.02 or higher.
## Output False

====

Target: Yer184c (UniProt P39961)
Sequence: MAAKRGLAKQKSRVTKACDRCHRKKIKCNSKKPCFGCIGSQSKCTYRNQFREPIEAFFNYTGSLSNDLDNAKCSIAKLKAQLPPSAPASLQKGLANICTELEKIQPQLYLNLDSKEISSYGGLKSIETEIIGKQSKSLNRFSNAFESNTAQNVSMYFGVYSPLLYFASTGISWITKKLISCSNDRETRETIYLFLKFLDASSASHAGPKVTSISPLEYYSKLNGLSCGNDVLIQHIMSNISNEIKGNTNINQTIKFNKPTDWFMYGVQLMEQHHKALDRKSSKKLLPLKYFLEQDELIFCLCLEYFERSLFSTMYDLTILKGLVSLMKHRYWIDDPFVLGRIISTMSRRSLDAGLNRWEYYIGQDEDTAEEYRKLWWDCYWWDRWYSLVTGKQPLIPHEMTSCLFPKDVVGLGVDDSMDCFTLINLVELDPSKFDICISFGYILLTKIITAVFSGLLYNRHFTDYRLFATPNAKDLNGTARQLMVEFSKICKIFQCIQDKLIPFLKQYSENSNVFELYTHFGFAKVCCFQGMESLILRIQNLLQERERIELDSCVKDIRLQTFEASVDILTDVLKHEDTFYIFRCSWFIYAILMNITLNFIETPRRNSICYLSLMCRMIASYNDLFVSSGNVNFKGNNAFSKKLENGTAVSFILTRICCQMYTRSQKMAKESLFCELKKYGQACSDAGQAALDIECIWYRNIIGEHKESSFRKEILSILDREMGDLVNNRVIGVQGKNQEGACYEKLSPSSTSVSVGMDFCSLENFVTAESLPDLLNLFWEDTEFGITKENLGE
Assay: PBM E-score (8-mer binding enrichment) (E-score (-0.5 to 0.5)); higher = stronger / more preferred TF binding
Settings: protein concentration: 100 nM; construct: GST-full length
In all, about 33,000 sequences were measured (“E-score (-0.5 to 0.5)”: median about -0.016, highest 2% from about 0.3 on). The list comes from a sample in which the highest values are over-represented; it also holds close analogues and randomly drawn sequences.
Assay Endpoint: PBM E-score
Field format: numeric only.

## Input // returns reported PBM E-score for input AATATCCG
## Output 0.352

## Input And what about the sequence ACGAACTA ?
## Output 0.157

## Input Moving on to the next sequence: ATCCGGAT
## Output 0.442

More entries:
## Input So what does the record say about PBM E-score for AGGTTATC ?
## Output -0.0359

## Input Then ATCGGCCA ?
## Output 0.125

## Input Try the sequence AAGAGAAT
## Output 0.0316

## Input Next record, please: CTCCGGGA
## Output 0.205

## Input Also AAGATTAT , if possible.
## Output 0.106

## Input Consider next the sequence CCGGCCCG in the same way.
## Output 0.386

## Input Same read-out for ATTATCCC ?
## Output 0.0672

## Input Try this sequence next: CGGTTGAC
## Output 0.113

====

Target: Yer184c (UniProt P39961)
Sequence: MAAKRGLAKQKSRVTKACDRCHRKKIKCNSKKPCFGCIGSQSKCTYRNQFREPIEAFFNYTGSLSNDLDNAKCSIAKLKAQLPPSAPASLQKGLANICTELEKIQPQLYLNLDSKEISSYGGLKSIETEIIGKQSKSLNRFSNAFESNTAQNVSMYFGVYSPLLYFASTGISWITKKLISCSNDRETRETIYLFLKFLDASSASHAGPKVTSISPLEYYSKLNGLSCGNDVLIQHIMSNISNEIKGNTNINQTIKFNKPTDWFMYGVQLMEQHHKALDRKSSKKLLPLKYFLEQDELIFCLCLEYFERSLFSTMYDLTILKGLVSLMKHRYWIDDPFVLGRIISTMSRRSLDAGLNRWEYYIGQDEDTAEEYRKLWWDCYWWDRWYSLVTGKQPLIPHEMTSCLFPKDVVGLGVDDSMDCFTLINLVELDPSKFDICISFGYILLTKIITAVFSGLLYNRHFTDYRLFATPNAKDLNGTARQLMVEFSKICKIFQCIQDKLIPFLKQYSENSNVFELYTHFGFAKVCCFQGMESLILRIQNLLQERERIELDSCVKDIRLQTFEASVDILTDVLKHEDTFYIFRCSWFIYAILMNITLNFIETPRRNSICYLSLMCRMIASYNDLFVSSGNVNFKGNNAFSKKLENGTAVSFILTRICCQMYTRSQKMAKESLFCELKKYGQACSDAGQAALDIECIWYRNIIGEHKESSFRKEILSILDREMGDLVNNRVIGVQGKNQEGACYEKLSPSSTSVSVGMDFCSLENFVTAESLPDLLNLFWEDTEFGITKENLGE
Assay: PBM E-score (8-mer binding enrichment) (E-score (-0.5 to 0.5)); higher = stronger / more preferred TF binding
Conditions: protein concentration: 100 nM; construct: GST-full length
In all, about 33,000 sequences were measured (“E-score (-0.5 to 0.5)”: median about -0.016, highest 2% from about 0.3 on). This is one part of a sample in which the highest values are shown more often than they occur.
So basically: PBM E-score at 0.2 or higher? That is fulfilled. Lower than 0.2? That is not fulfilled.

## Input Hello, I need to know if ACAGTTAT has measured PBM E-score not below 0.2. Thanks!
## Output not fulfilled

## Input And GCCGGCAA ?
## Output fulfilled

Further cases:
## Input API: above_or_equal(metric=PBM E-score, cutoff=0.2) for item CGGCGCAC
## Output fulfilled

## Input What about GTTGTACA ?
## Output fulfilled

## Input Proceed to AACTTACG
## Output not fulfilled

## Input Follow-up item: GCCGGCTA
## Output fulfilled

## Input Then what about the sequence GTAACTCA ?
## Output not fulfilled

## Input Try the sequence CTCGGCAA
## Output fulfilled

## Input Next sequence up: ATCGGCAG
## Output fulfilled

====

Biological target: Yer184c (UniProt P39961)
Sequence: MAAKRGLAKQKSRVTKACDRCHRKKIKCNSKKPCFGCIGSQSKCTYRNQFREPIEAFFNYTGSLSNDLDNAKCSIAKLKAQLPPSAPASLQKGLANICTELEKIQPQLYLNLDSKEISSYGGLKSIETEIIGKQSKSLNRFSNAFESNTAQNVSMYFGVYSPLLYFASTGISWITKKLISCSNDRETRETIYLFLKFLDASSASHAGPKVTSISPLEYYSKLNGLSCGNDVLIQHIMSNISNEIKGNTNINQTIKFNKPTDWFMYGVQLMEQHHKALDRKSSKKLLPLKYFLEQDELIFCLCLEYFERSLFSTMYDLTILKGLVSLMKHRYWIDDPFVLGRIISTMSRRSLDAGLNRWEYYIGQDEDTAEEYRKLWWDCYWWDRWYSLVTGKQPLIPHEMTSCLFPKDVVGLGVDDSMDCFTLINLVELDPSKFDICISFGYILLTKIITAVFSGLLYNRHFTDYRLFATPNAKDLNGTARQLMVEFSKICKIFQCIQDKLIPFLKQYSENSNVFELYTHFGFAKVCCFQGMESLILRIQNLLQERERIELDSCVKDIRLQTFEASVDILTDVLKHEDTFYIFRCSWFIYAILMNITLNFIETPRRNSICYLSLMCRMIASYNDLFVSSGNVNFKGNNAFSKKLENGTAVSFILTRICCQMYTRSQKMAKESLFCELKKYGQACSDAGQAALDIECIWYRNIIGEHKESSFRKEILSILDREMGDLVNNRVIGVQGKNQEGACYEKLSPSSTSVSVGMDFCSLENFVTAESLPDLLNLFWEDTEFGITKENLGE
Experiment: PBM E-score (8-mer binding enrichment) (E-score (-0.5 to 0.5)); higher = stronger / more preferred TF binding
Conditions: protein concentration: 100 nM; construct: GST-full length
In all, about 33,000 sequences were measured (“E-score (-0.5 to 0.5)”: median about -0.016, highest 2% from about 0.3 on). Only a selection was taken, and the highest values are over-represented in it overall.
Is PBM E-score at least 0.2? Then label 1. If not, label 0.

Use the examples below as a reference point.
## Input Check the entry CAACTACC : does PBM E-score equal or exceed 0.2?
## Output label 0

## Input Then CCGCCGCG ?
## Output label 0

## Input Now the same for AACAATAT
## Output label 1

Next:
## Input Quick check, PBM E-score >= 0.2? CCATCTAC
## Output label 0

## Input Entry CGAACACG please
## Output label 0

## Input Now give it for AGGTTAAC too.
## Output label 0

## Input What do we get for GACCGGAC ?
## Output label 1

## Input What do you have for CCGGACTA ?
## Output label 1

## Input Same for AATAATAC
## Output label 1
